compounds and their reported Ki
Experiment: Inhibition of Dictyostelium discoideum AX2 RNase P by double reciprocal plot
A number alone suffices; assume µM.

Completed entries (count: 5):
compound | u | Ki
COc1cc(C)c(/C=C/C(C)=C/C=C/C(C)=C/C(=O)NCCCNCCCCNCCCN)c(C)c1C [N1-Acitretinylspermine] | µM | 2.45
C/C(=C\c1ccc(C(=O)O)cc1)c1ccc2c(c1)C(C)(C)CCC2(C)C | µM | 45
CC1=C(/C=C/C(C)=C/C=C/C(C)=C/C(=O)O)C(C)(C)CCC1 [TRETINOIN] | µM | 15
CC1=C(/C=C/C(C)=C/C=C/C(C)=C/CO)C(C)(C)CCC1 [RETINOL] | µM | 1480
COc1cc(C)c(/C=C/C(C)=C/C=C/C(C)=C/C(=O)O)c(C)c1C [ACITRETIN] | µM | 8

Endpoint output: Ki of CC1=C(/C=C/C(C)=C/C=C/C(C)=C/C(=O)N(CCCN)CCCCN(CCCN)C(=O)/C=C(C)/C=C/C=C(C)/C=C/C2=C(C)CCCC2(C)C)C(C)(C)CCC1 . Value?
1.1
